# Measured Target: SMARCA2 (Homo sapiens)
# Construct: endogenous in cells; host or cells: HT1080 (CRISPR HiBiT knock-in clone, generated in house)
# Sequence (P51531 whole entry): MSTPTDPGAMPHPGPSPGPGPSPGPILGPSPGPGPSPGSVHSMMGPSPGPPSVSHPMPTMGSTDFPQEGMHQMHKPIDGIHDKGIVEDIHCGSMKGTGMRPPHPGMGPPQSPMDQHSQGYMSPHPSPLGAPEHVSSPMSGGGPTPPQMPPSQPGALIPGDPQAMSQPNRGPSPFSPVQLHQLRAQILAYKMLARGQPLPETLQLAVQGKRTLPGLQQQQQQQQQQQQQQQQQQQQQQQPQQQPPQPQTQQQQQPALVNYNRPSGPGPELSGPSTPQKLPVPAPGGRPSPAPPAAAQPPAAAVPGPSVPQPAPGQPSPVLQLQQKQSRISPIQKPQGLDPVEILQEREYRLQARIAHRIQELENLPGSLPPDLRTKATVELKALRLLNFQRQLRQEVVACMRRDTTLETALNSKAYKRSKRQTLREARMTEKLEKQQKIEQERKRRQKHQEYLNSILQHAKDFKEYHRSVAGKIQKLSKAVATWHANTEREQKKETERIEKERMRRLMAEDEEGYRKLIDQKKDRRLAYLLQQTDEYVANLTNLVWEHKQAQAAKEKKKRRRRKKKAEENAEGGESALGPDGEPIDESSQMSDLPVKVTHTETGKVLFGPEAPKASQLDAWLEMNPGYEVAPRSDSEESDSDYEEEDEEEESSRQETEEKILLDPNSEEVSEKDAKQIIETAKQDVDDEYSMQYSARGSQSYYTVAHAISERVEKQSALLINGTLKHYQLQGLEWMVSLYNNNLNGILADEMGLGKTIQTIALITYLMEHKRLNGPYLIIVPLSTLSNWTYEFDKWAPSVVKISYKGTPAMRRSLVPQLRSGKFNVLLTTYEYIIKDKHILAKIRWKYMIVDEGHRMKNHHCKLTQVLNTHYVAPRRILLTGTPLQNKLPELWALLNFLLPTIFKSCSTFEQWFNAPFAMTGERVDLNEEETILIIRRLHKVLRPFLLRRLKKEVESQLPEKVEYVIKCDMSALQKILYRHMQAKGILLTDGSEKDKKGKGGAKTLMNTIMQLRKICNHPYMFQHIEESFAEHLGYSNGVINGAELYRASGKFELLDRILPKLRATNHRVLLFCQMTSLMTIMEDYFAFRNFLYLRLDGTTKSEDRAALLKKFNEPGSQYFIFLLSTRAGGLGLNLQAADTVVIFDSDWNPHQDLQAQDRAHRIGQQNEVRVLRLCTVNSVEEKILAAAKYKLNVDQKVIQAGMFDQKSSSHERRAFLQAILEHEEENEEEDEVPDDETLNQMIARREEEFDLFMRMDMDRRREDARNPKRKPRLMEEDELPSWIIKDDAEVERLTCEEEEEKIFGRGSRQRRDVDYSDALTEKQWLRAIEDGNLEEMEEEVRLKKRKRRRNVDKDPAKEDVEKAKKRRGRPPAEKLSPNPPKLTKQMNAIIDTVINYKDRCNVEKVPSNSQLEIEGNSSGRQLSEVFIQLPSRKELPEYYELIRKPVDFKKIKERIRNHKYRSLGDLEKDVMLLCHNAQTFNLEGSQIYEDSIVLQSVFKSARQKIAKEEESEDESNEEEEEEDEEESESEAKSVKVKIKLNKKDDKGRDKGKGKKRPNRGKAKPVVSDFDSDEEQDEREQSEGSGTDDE
# Protocol Notes: SMARCA2 HiBiT degradation assay (cellular)
# Format: cell-based
# Applied Conditions: A549, 6 h incubation; Emax = amount of residual protein remaining in the cell following compound treatment; table head names A549
For each record, check the reported Emax: if it is below 40% write y, else write n.

- Molecule: "Nc1nnc(-c2ccccc2O)cc1N1CCC(C(=O)N2CCC(C(=O)N3CCN(c4ccc(C5CCC(=O)NC5=O)cc4)CC3)CC2)(c2ccccc2)CC1 (centres unmarked) [Example 176]"
  Assigned Label: "y"
- Molecule: "Cc1c(C(=O)N2CCN(C(=O)C3CCN(c4ccc5c(c4)C(=O)N(C4CCC(=O)NC4=O)C5=O)CC3)CC2)cccc1N1C2CCC1CN(c1cc(-c3ccccc3O)nnc1N)C2 (racemic) [Example 116]"
  Assigned Label: "y"
- Molecule: "Nc1nnc(-c2ccccc2O)cc1N1CCC2(CC1)CN(C(=O)CCCCCCCCCCCn1cc(CNc3cccc4c3C(=O)N(C3CCC(=O)NC3=O)C4=O)nn1)CCO2 (centres unmarked) [Example 7]"
  Assigned Label: "n"
- Molecule: "Nc1nnc(-c2ccccc2O)cc1N1CCC(C(=O)N2CCC(C(=O)N3CCC(c4ccc(C5CCC(=O)NC5=O)cc4)CC3)CC2)(c2ccccc2)CC1 (centres unmarked) [Example 175]"
  Assigned Label: "n"
- Molecule: "Nc1nnc(-c2ccccc2O)cc1N1CC(Oc2ccc(CN3CCN(C(=O)CCCCCCNc4cccc5c4C(=O)N(C4CCC(=O)NC4=O)C5=O)CC3)cc2)C1 (centres unmarked) [Example 67]"
  Assigned Label: "n"
